Please provide measured mean geometric MIC, Vancomycin Resistant Strains for the entries that follow.
system: vancomycin-resistant enterococci; test: broth micro-dilution, mean geometric MIC; type: cell-based, Enterococcus faecium and Enterococcus faecalis; settings: enterococci, 24-hour incubation
Give bare numbers, in µg/mL.

Below are worked cases with known answers.
CNC(CC(C)C)C(=O)NC1C(=O)NC(CC(N)=O)C(=O)NC2C(=O)NC3C(=O)NC(C(=O)NC(C(=O)O)c4cc(O)cc(O)c4-c4cc3ccc4O)C(OC3CC(C)(N)C(O)C(C)O3)c3ccc(c(Cl)c3)Oc3cc2cc(c3OC2OC(CO)C(O)C(O)C2OC2CC(C)(NCc3ccc(OC(F)F)cc3)C(O)C(C)O2)Oc2ccc(cc2Cl)C1O (stereo not drawn): 4.7
CNC(CC(C)C)C(=O)NC1C(=O)NC(CC(N)=O)C(=O)NC2C(=O)NC3C(=O)NC(C(=O)NC(C(=O)O)c4cc(O)cc(O)c4-c4cc3ccc4O)C(OC3CC(C)(N)C(O)C(C)O3)c3ccc(c(Cl)c3)Oc3cc2cc(c3OC2OC(CO)C(O)C(O)C2OC2CC(C)(NCc3ccc(S(=O)(=O)c4ccc(Cl)cc4)cc3)C(O)C(C)O2)Oc2ccc(cc2Cl)C1O (stereo not drawn): 0.15
CNC(CC(C)C)C(=O)NC1C(=O)NC(CC(N)=O)C(=O)NC2C(=O)NC3C(=O)NC(C(=O)NC(C(=O)O)c4cc(O)cc(O)c4-c4cc3ccc4O)C(OC3CC(C)(N)C(O)C(C)O3)c3ccc(c(Cl)c3)Oc3cc2cc(c3OC2OC(CO)C(O)C(O)C2OC2CC(C)(NCc3cc(-c4ccccc4)ccc3O)C(O)C(C)O2)Oc2ccc(cc2Cl)C1O (stereo not drawn): 3.4
CNC(CC(C)C)C(=O)NC1C(=O)NC(CC(N)=O)C(=O)NC2C(=O)NC3C(=O)NC(C(=O)NC(C(=O)O)c4cc(O)cc(O)c4-c4cc3ccc4O)C(OC3CC(C)(N)C(O)C(C)O3)c3ccc(c(Cl)c3)Oc3cc2cc(c3OC2OC(CO)C(O)C(O)C2OC2CC(C)(NCc3ccc(-c4ccccc4C)c(C)c3)C(O)C(C)O2)Oc2ccc(cc2Cl)C1O (stereo not drawn): 1.0
CNC(CC(C)C)C(=O)NC1C(=O)NC(CC(N)=O)C(=O)NC2C(=O)NC3C(=O)NC(C(=O)NC(C(=O)O)c4cc(O)cc(O)c4-c4cc3ccc4O)C(OC3CC(C)(N)C(O)C(C)O3)c3ccc(c(Cl)c3)Oc3cc2cc(c3OC2OC(CO)C(O)C(O)C2OC2CC(C)(NCc3ccc(C(c4ccccc4)c4ccccc4)cc3)C(O)C(C)O2)Oc2ccc(cc2Cl)C1O (stereo not drawn): 0.71

Given item CCN(CC)CCOc1ccc(CNC2(C)CC(OC3C(Oc4c5cc6cc4Oc4ccc(cc4Cl)C(OC4CC(C)(N)C(O)C(C)O4)C4NC(=O)C(NC(=O)C6NC(=O)C(CC(N)=O)NC(=O)C(NC(=O)C(CC(C)C)NC)C(O)c6ccc(c(Cl)c6)O5)c5ccc(O)c(c5)-c5c(O)cc(O)cc5C(C(=O)O)NC4=O)OC(CO)C(O)C3O)OC(C)C2O)cc1 (stereo not drawn) , the value recorded as its mean geometric MIC, Vancomycin Resistant Strains is 54

====

Please provide measured MIC for the entries that follow.
test system: Staphylococcus aureus SA1199B; assay type: cell-based

Below are worked cases with known answers.
CNC(CC(C)C)C(=O)NC1C(=O)NC(CC(N)=O)C(=O)NC2C(=O)NC3C(=O)NC(C(=O)NC(C(=O)O)c4cc(O)cc(O)c4-c4cc3ccc4O)C(OC3CC(C)(N)C(O)C(C)O3)c3ccc(c(Cl)c3)Oc3cc2cc(c3OC2OC(CO)C(O)C(O)C2OC2CC(C)(NCc3ccc(-c4ccccc4[N+](=O)[O-])cc3)C(O)C(C)O2)Oc2ccc(cc2Cl)C1O (stereo not drawn) [Compound 102]: 1 µg/mL
CNC(CC(C)C)C(=O)NC1C(=O)NC(CC(N)=O)C(=O)NC2C(=O)NC3C(=O)NC(C(=O)NC(C(=O)O)c4cc(O)cc(O)c4-c4cc3ccc4O)C(OC3CC(C)(N)C(O)C(C)O3)c3ccc(c(Cl)c3)Oc3cc2cc(c3OC2OC(CO)C(O)C(O)C2OC2CC(C)(NCc3ccc(N4CCOCC4)cc3)C(O)C(C)O2)Oc2ccc(cc2Cl)C1O (stereo not drawn) [Compound 147]: ≤ 0.06 µg/mL

API: the following record is the query input.
Value sought: MIC, system Staphylococcus aureus SA1199B, item CNC(CC(C)C)C(=O)NC1C(=O)NC(CC(N)=O)C(=O)NC2C(=O)NC3C(=O)NC(C(=O)NC(C(=O)O)c4cc(O)cc(O)c4-c4cc3ccc4O)C(OC3CC(C)(N)C(O)C(C)O3)c3ccc(c(Cl)c3)Oc3cc2cc(c3OC2OC(CO)C(O)C(O)C2OC2CC(C)(NCCCCCCCCOc3ccc(OC)cc3)C(O)C(C)O2)Oc2ccc(cc2Cl)C1O (stereo not drawn) [Compound 200] . Result: 1 µg/mL

====

system: vancomycin-resistant enterococci; test: broth micro-dilution, mean geometric MIC; assay type: cell-based, Enterococcus faecium and Enterococcus faecalis; details: enterococci, 24-hour incubation
VALUE_TYPE: mean geometric MIC, Vancomycin Resistant Strains

Below are worked cases with known answers.
CNC(CC(C)C)C(=O)NC1C(=O)NC(CC(N)=O)C(=O)NC2C(=O)NC3C(=O)NC(C(=O)NC(C(=O)O)c4cc(O)cc(O)c4-c4cc3ccc4O)C(OC3CC(C)(N)C(O)C(C)O3)c3ccc(c(Cl)c3)Oc3cc2cc(c3OC2OC(CO)C(O)C(O)C2OC2CC(C)(NCCc3ccc(Cc4ccccc4)cc3)C(O)C(C)O2)Oc2ccc(cc2Cl)C1O (centres unmarked) [Compound 35]: 5.6 µg/mL
CNC(CC(C)C)C(=O)NC1C(=O)NC(CC(N)=O)C(=O)NC2C(=O)NC3C(=O)NC(C(=O)NC(C(=O)O)c4cc(O)cc(O)c4-c4cc3ccc4O)C(OC3CC(C)(N)C(O)C(C)O3)c3ccc(c(Cl)c3)Oc3cc2cc(c3OC2OC(CO)C(O)C(O)C2OC2CC(C)(NCc3ccc(OCCOCCCl)cc3)C(O)C(C)O2)Oc2ccc(cc2Cl)C1O (centres unmarked) [Compound 75]: 16 µg/mL
CNC(CC(C)C)C(=O)NC1C(=O)NC(CC(N)=O)C(=O)NC2C(=O)NC3C(=O)NC(C(=O)NC(C(=O)O)c4cc(O)cc(O)c4-c4cc3ccc4O)C(OC3CC(C)(N)C(O)C(C)O3)c3ccc(c(Cl)c3)Oc3cc2cc(c3OC2OC(CO)C(O)C(O)C2OC2CC(C)(NCCCCCCCCOc3ccc(-c4ccccc4)cc3)C(O)C(C)O2)Oc2ccc(cc2Cl)C1O (centres unmarked) [Compound 201]: 1.2 µg/mL
CNC(CC(C)C)C(=O)NC1C(=O)NC(CC(N)=O)C(=O)NC2C(=O)NC3C(=O)NC(C(=O)NC(C(=O)O)c4cc(O)cc(O)c4-c4cc3ccc4O)C(OC3CC(C)(N)C(O)C(C)O3)c3ccc(c(Cl)c3)Oc3cc2cc(c3OC2OC(CO)C(O)C(O)C2OC2CC(C)(NCc3ccc(NC(=O)c4ccc(F)cc4)cc3)C(O)C(C)O2)Oc2ccc(cc2Cl)C1O (centres unmarked) [Compound 193]: 2 µg/mL
CC(C)CC(C(=O)NC1C(=O)NC(CC(N)=O)C(=O)NC2C(=O)NC3C(=O)NC(C(=O)NC(C(=O)O)c4cc(O)cc(O)c4-c4cc3ccc4O)C(OC3CC(C)(N)C(O)C(C)O3)c3ccc(c(Cl)c3)Oc3cc2cc(c3OC2OC(CO)C(O)C(O)C2OC2CC(C)(NCc3cc4ccccc4s3)C(O)C(C)O2)Oc2ccc(cc2Cl)C1O)N(C)Cc1cc2ccccc2s1 (centres unmarked) [Compound 276]: 23 µg/mL

For each of the compounds below, note its mean geometric MIC, Vancomycin Resistant Strains.
1. C=CCOc1ccc(CNC2(C)CC(OC3C(Oc4c5cc6cc4Oc4ccc(cc4Cl)C(OC4CC(C)(N)C(O)C(C)O4)C4NC(=O)C(NC(=O)C6NC(=O)C(CC(N)=O)NC(=O)C(NC(=O)C(CC(C)C)NC)C(O)c6ccc(c(Cl)c6)O5)c5ccc(O)c(c5)-c5c(O)cc(O)cc5C(C(=O)O)NC4=O)OC(CO)C(O)C3O)OC(C)C2O)cc1 (centres unmarked) [Compound 7]
2. CNC(CC(C)C)C(=O)NC1C(=O)NC(CC(N)=O)C(=O)NC2C(=O)NC3C(=O)NC(C(=O)NC(C(=O)O)c4cc(O)cc(O)c4-c4cc3ccc4O)C(OC3CC(C)(N)C(O)C(C)O3)c3ccc(c(Cl)c3)Oc3cc2cc(c3OC2OC(CO)C(O)C(O)C2OC2CC(C)(NCc3ccc(-c4ccc(F)cc4)cc3)C(O)C(C)O2)Oc2ccc(cc2Cl)C1O (centres unmarked) [Compound 211]
3. CC(C)CC(C(=O)NC1C(=O)NC(CC(N)=O)C(=O)NC2C(=O)NC3C(=O)NC(C(=O)NC(C(=O)O)c4cc(O)cc(O)c4-c4cc3ccc4O)C(OC3CC(C)(NCc4ccc(-c5ccccc5)cc4)C(O)C(C)O3)c3ccc(c(Cl)c3)Oc3cc2cc(c3OC2OC(CO)C(O)C(O)C2OC2CC(C)(NCc3ccc(-c4ccccc4)cc3)C(O)C(C)O2)Oc2ccc(cc2Cl)C1O)N(C)Cc1ccc(-c2ccccc2)cc1 (centres unmarked) [Compound 249]
4. CNC(CC(C)C)C(=O)NC1C(=O)NC(CC(N)=O)C(=O)NC2C(=O)NC3C(=O)NC(C(=O)NC(C(=O)O)c4cc(O)cc(O)c4-c4cc3ccc4O)C(OC3CC(C)(N)C(O)C(C)O3)c3ccc(c(Cl)c3)Oc3cc2cc(c3OC2OC(CO)C(O)C(O)C2OC2CC(C)(NCCc3ccc4ccccc4c3)C(O)C(C)O2)Oc2ccc(cc2Cl)C1O (centres unmarked) [Compound 179]
5. CCc1ccc(-c2ccc(CNC3(C)CC(OC4C(Oc5c6cc7cc5Oc5ccc(cc5Cl)C(OC5CC(C)(N)C(O)C(C)O5)C5NC(=O)C(NC(=O)C7NC(=O)C(CC(N)=O)NC(=O)C(NC(=O)C(CC(C)C)NC)C(O)c7ccc(c(Cl)c7)O6)c6ccc(O)c(c6)-c6c(O)cc(O)cc6C(C(=O)O)NC5=O)OC(CO)C(O)C4O)OC(C)C3O)cc2)cc1 (centres unmarked) [Compound 90]
6. CNC(CC(C)C)C(=O)NC1C(=O)NC(CC(N)=O)C(=O)NC2C(=O)NC3C(=O)NC(C(=O)NC(C(=O)O)c4cc(O)cc(O)c4-c4cc3ccc4O)C(OC3CC(C)(N)C(O)C(C)O3)c3ccc(c(Cl)c3)Oc3cc2cc(c3OC2OC(CO)C(O)C(O)C2OC2CC(C)(NCc3ccc(-c4ccccc4[N+](=O)[O-])cc3)C(O)C(C)O2)Oc2ccc(cc2Cl)C1O (centres unmarked) [Compound 102]

Result:
1: 2.8 µg/mL; 2: 0.35 µg/mL; 3: 11 µg/mL; 4: 1.7 µg/mL; 5: 0.71 µg/mL; 6: 2.0 µg/mL
